target: PTP1B1-281 (PTP1B282 in FIG. 12) (Homo sapiens, UniProt P18031); construct: made in house; host or cells: E. coli BL21 (DE3); test: pNPP hydrolysis by PTP1B lacking the α7 helix; type: biochemical, H. sapiens; conditions: PTP1B1-281; competitive model of inhibition; read-out: Fit par. Ki, competitive model
Value kind: pKi
Give bare numbers, as −log10 of the molar value.

{"Compound": "C=C(C)[C@@H]1CC[C@@H](C)[C@@H]2CCC(C)=C[C@@H]21", "pKi": 4.42}

query: Assign pKi to the following record: CC(C)=CCC=C(C)C1CC=C(C)CC1 (centres unmarked)
result: 5.19

====

Field: Ki. Provide a value for each of the molecules that follow.
Target: PTP1B1-281 (PTP1B282 in FIG. 12) (Homo sapiens, UniProt P18031)
Construct: made in house; host or cells: E. coli BL21 (DE3)
Sequence (P18031 1-281): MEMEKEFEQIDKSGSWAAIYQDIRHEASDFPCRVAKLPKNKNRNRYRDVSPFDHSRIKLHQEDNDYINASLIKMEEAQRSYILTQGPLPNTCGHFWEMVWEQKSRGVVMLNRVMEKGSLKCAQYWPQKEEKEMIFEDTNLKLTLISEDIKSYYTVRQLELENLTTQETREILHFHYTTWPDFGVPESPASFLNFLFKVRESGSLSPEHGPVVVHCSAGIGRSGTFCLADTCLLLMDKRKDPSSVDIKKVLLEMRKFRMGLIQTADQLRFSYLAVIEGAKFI
Test: pNPP hydrolysis by PTP1B lacking the α7 helix
Format: biochemical, H. sapiens
Details: PTP1B1-281; mixed model, competitive constant; read-out: Fit par. Ki,c, mixed model
One number for each entry, in µM.

{"Molecule": "C=C(C)[C@@H]1CC[C@@H](C)[C@@H]2CCC(C)=C[C@@H]21 [amorphadiene]", "Ki [µM]": 157}

Turning to the following molecule.
query: System PTP1B1-281 (PTP1B282 in FIG. 12) (Homo sapiens, UniProt P18031). Read-out Ki. Item CC(C)=CCC=C(C)C1CC=C(C)CC1 (stereo not drawn) [α-bisabolene] . Report value.
result: 39

====

molecular target: TCPTP1-281; assay: pNPP hydrolysis by TC-PTP lacking the α7-equivalent region; format: biochemical, H. sapiens; conditions: TCPTP1-281; mixed model, competitive constant; read-out: Fit par. Ki,c, mixed model
Value kind: Ki (mM)
Answers are plain numbers, in mM.

query: Assign Ki to the following record: CC(C)=CCC=C(C)C1CC=C(C)CC1 (stereo not drawn) [α-bisabolene]
result: 3.61

====

molecular target: TCPTP1-281; experiment: pNPP hydrolysis by TC-PTP lacking the α7-equivalent region; type: biochemical, H. sapiens; details: TCPTP1-281; uncompetitive model of inhibition; read-out: Fit par. Ki, uncompetitive model
Value kind: Ki (µM)
Answers are plain numbers, in µM.

Would you mind listing Ki for each of the following molecules?
1. C=C(C)[C@@H]1CC[C@@H](C)[C@@H]2CCC(C)=C[C@@H]21
2. CC(C)=CCC=C(C)C1CC=C(C)CC1 (centres unmarked)

result:
[356, 69.2]

====

target: TC-PTP (TCPTP1-317; TCPTP292 in FIG. 12) (Mus musculus); construct: His-tag; made in house; host or cells: E. coli BL21 (DE3), pET16b; assay: TC-PTP-catalyzed hydrolysis of pNPP in the presence of terpenoids; type: biochemical, H. sapiens; conditions: TCPTP1-317; mixed model, competitive constant; read-out: Fit par. Ki,c, mixed model
Sequence (Q06180 1-317): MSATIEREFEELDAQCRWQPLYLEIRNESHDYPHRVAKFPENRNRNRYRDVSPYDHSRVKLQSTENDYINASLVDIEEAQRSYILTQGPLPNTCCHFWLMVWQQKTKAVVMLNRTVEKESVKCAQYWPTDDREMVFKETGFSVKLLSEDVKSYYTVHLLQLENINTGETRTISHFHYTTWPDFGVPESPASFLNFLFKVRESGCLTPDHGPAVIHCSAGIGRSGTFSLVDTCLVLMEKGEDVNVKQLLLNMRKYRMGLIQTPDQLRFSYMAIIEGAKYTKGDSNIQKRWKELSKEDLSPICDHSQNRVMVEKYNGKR
Value kind: pKi
Give bare numbers, as −log10 of the molar value.

query: Assign pKi to the following record: CC(C)=CCC=C(C)C1CC=C(C)CC1 (stereo not shown)
result: 2.44

Cited source: patent US12729458B2
